- testSystem: D(4) dopamine receptor (Homo sapiens, UniProt P21917)
- Sequence (P21917 whole entry): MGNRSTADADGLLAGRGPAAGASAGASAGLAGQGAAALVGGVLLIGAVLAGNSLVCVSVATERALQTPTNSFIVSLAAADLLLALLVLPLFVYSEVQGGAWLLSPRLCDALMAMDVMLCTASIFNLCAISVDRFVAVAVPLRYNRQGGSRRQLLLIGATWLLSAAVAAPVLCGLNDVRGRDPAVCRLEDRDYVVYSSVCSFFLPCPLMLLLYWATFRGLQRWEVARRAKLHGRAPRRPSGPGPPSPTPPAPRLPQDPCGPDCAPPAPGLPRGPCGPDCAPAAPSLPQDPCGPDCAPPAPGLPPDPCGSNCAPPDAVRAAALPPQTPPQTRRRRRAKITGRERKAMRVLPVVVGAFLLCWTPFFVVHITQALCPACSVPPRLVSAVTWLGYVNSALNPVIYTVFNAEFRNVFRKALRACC
endpointName: Ki

Give recorded Ki with D(4) dopamine receptor (Homo sapiens, UniProt P21917) for the following molecule: CCN(C)C1CCCc2ccncc21.O=C(O)/C=C\C(=O)O.O=C(O)/C=C\C(=O)O (stereo unspecified)
> 10 µM
